- ASSAY: Excipient screening: solubility in SEDDS excipients
- Assay type: physicochemical
- CONDITION DESCRIPTION: Propylene Glycol, 50 °C, organic solvent or mixture, thermodynamic from solid
- Procedure: The solubility of Compound 1-ethanolate was evaluated in a series of pharmaceutically acceptable excipients that are commonly used to prepare self-emulsifying drug delivery systems (SEDDS) for oral drug delivery. […] The indicated quantity of Compound 1-ethanolate was weighed into a 3 mL screw top glass vial outfitted with a magnetic stir bar. […]
MEASURED ATTRIBUTE: solubility

Entry CCOB1Oc2c(cccc2C(=O)OCOC(=O)C(CC)CC)C[C@@H]1NC(=O)CC [Compound 1-ethanolate] has what solubility? > 1210 mg/mL

###

- ASSAY: Metabolic stability in plasma
- Assay type: in vitro ADME
- CONDITION DESCRIPTION: Sprague-Dawley, Rat, test conc. 3 μM
Measured half-life at 3 μM accompanies every entry in the list below.
# number only, unit min dropped from output

COCC1=C(C(=O)OC(C)OC(=O)OC(C)C)N2C(=O)[C@@H](NC(=O)/C(=N\OC)c3csc(N)n3)[C@H]2SC1 (stereo partly drawn) [Cefpodoxime proxetil]    0.8

Please look at the following molecule next.
Entry CCC(=O)N[C@H]1Cc2cccc(C(=O)OCOC(=O)C(CC)CC)c2OB1O [Compound 1] has what half-life at 3 μM? 1.6

###

- ASSAY: Metabolic stability in plasma
- Assay type: in vitro ADME
- CONDITION DESCRIPTION: cynomolgus, Monkey, test conc. 3 μM
Measured half-life at 3 μM accompanies every entry in the list below.
# number only, unit min dropped from output

CCC(=O)N[C@H]1Cc2cccc(C(=O)OCOC(=O)C(CC)CC)c2OB1O    22

Entry COCC1=C(C(=O)OC(C)OC(=O)OC(C)C)N2C(=O)[C@@H](NC(=O)/C(=N\OC)c3csc(N)n3)[C@H]2SC1 (stereo partly drawn) has what half-life at 3 μM? 12.4

###

Target or system OXA-48-expressing Enterobacteriaceae (n = 39): recorded MIC50 listed per item.
# do not omit the unit; it follows the number

Answered cases to consult:
CN(C)c1cc(NC(=O)CNC(C)(C)C)c(O)c2c1C[C@H]1C[C@H]3[C@H](N(C)C)C(O)=C(C(N)=O)C(=O)[C@@]3(O)C(O)=C1C2=O    0.5 µg/mL
Nc1nc(/C(=C/CC(=O)O)C(=O)N[C@@H]2C(=O)N3C(C(=O)O)=CCS[C@H]23)cs1 [Ceftibuten, ceftibuten, reference compound]    16 µg/mL
C[C@@H](O)[C@H]1C(=O)N2C(C(=O)O)=C(S[C@@H]3CN[C@H](C(=O)N(C)C)C3)[C@H](C)[C@H]12    2 µg/mL

Param readout= MIC50; system= OXA-48-expressing Enterobacteriaceae (n = 39); entry= NC[C@H]1O[C@H](O[C@H]2[C@H](O)[C@@H](O[C@H]3O[C@H](CO)[C@@H](O)[C@H](N)[C@H]3O)[C@H](N)C[C@@H]2N)[C@H](N)C[C@@H]1O ; returns value. 16 µg/mL

###

- ASSAY: Single ascending dose pharmacokinetics, Solutol HS-15:Water (10:90)
- Assay type: in vivo, Beagle dogs
- CONDITION DESCRIPTION: beagle, dog, plasma, iv, 10 mg/kg
MEASURED ATTRIBUTE: Cmax (µg/mL)
# number only, unit µg/mL dropped from output

Entry CCC(=O)N[C@H]1Cc2cccc(C(=O)O)c2OB1O has what Cmax? 54.5

###

- ASSAY: Excipient screening: solubility in SEDDS excipients
- Format: physicochemical
- CONDITION DESCRIPTION: 50 °C, organic solvent or mixture, thermodynamic from solid, Kolliphor EL (Polyoxyl 35 hydrogenated castor oil)
MEASURED ATTRIBUTE: solubility

Entry CCOB1Oc2c(cccc2C(=O)OCOC(=O)C(CC)CC)C[C@@H]1NC(=O)CC [Compound 1-ethanolate] has what solubility? > 376 mg/mL

###

- ASSAY: Excipient screening: solubility in SEDDS excipients
- Type: physicochemical
- CONDITION DESCRIPTION: TPGS, neat excipient, 50 °C, organic solvent or mixture, thermodynamic from solid
- Experimental: The solubility of Compound 1-ethanolate was evaluated in a series of pharmaceutically acceptable excipients that are commonly used to prepare self-emulsifying drug delivery systems (SEDDS) for oral drug delivery. […] The indicated quantity of Compound 1-ethanolate was weighed into a 3 mL screw top glass vial outfitted with a magnetic stir bar. […]
MEASURED ATTRIBUTE: solubility

Entry CCOB1Oc2c(cccc2C(=O)OCOC(=O)C(CC)CC)C[C@@H]1NC(=O)CC [Compound 1-ethanolate] has what solubility? > 229 mg/mL

###

Measured Number of strains at MIC value 4 mg/L accompanies every entry in the list below.
- System: KPC-expressing Enterobacteriaceae (n = 77)
- ASSAY: organism not typed
- Assay type: cell-based
- CONDITION DESCRIPTION: KPC-expressing (n = 77)

Answered cases to consult:
Nc1nc(/C(=C/CC(=O)O)C(=O)N[C@@H]2C(=O)N3C(C(=O)O)=CCS[C@H]23)cs1 [Ceftibuten, ceftibuten, reference compound]    7
CN(C)c1cc(NC(=O)CNC(C)(C)C)c(O)c2c1C[C@H]1C[C@H]3[C@H](N(C)C)C(O)=C(C(N)=O)C(=O)[C@@]3(O)C(O)=C1C2=O    5

Entry C[C@@H](O)[C@H]1C(=O)N2C(C(=O)O)=C(S[C@@H]3CN[C@H](C(=O)N(C)C)C3)[C@H](C)[C@H]12 has what Number of strains at MIC value 4 mg/L? 4

Entry NC[C@H]1O[C@H](O[C@H]2[C@H](O)[C@@H](O[C@H]3O[C@H](CO)[C@@H](O)[C@H](N)[C@H]3O)[C@H](N)C[C@@H]2N)[C@H](N)C[C@@H]1O has what Number of strains at MIC value 4 mg/L? 0

###

Measured Number of strains at MIC value ≥32 mg/L accompanies every entry in the list below.
- Test system: KPC-expressing Enterobacteriaceae (n = 77)
- ASSAY: organism not typed
- Type: cell-based
- CONDITION DESCRIPTION: KPC-expressing (n = 77)
Give the figure by itself; no unit, no explanation.

CN(C)c1cc(NC(=O)CNC(C)(C)C)c(O)c2c1C[C@H]1C[C@H]3[C@H](N(C)C)C(O)=C(C(N)=O)C(=O)[C@@]3(O)C(O)=C1C2=O [Tigecycline]    0
NC[C@H]1O[C@H](O[C@H]2[C@H](O)[C@@H](O[C@H]3O[C@H](CO)[C@@H](O)[C@H](N)[C@H]3O)[C@H](N)C[C@@H]2N)[C@H](N)C[C@@H]1O [Tobramycin]    65
Nc1nc(/C(=C/CC(=O)O)C(=O)N[C@@H]2C(=O)N3C(C(=O)O)=CCS[C@H]23)cs1 [Ceftibuten, ceftibuten, reference compound]    25

Entry C[C@@H](O)[C@H]1C(=O)N2C(C(=O)O)=C(S[C@@H]3CN[C@H](C(=O)N(C)C)C3)[C@H](C)[C@H]12 [Meropenem] has what Number of strains at MIC value ≥32 mg/L? 44

###

Measured Number of strains at MIC value ≤0.06 mg/L accompanies every entry in the list below.
- Tested on: ESBL-expressing Enterobacteriaceae (n = 33)
- ASSAY: Broth microdilution MIC, ceftibuten/Compound 2 vs IV comparators
- Assay type: cell-based
- CONDITION DESCRIPTION: ESBL-expressing (n = 33)

Answered cases to consult:
Nc1nc(/C(=C/CC(=O)O)C(=O)N[C@@H]2C(=O)N3C(C(=O)O)=CCS[C@H]23)cs1 [Ceftibuten, ceftibuten, reference compound]    0
NC[C@H]1O[C@H](O[C@H]2[C@H](O)[C@@H](O[C@H]3O[C@H](CO)[C@@H](O)[C@H](N)[C@H]3O)[C@H](N)C[C@@H]2N)[C@H](N)C[C@@H]1O    0
CN(C)c1cc(NC(=O)CNC(C)(C)C)c(O)c2c1C[C@H]1C[C@H]3[C@H](N(C)C)C(O)=C(C(N)=O)C(=O)[C@@]3(O)C(O)=C1C2=O    0

Please look at the following molecule next.
Entry C[C@@H](O)[C@H]1C(=O)N2C(C(=O)O)=C(S[C@@H]3CN[C@H](C(=O)N(C)C)C3)[C@H](C)[C@H]12 has what Number of strains at MIC value ≤0.06 mg/L? 29

###

- Tested on: ESBL-expressing Enterobacteriaceae (n = 33)
- ASSAY: Broth microdilution MIC, ceftibuten/Compound 2 vs IV comparators
- Assay type: cell-based
- CONDITION DESCRIPTION: ESBL-expressing (n = 33)
Measured Number of strains at MIC value 1 mg/L accompanies every entry in the list below.
Give the figure by itself; no unit, no explanation.

Entry NC[C@H]1O[C@H](O[C@H]2[C@H](O)[C@@H](O[C@H]3O[C@H](CO)[C@@H](O)[C@H](N)[C@H]3O)[C@H](N)C[C@@H]2N)[C@H](N)C[C@@H]1O has what Number of strains at MIC value 1 mg/L? 5

Entry C[C@@H](O)[C@H]1C(=O)N2C(C(=O)O)=C(S[C@@H]3CN[C@H](C(=O)N(C)C)C3)[C@H](C)[C@H]12 has what Number of strains at MIC value 1 mg/L? 1

Entry Nc1nc(/C(=C/CC(=O)O)C(=O)N[C@@H]2C(=O)N3C(C(=O)O)=CCS[C@H]23)cs1 [Ceftibuten, ceftibuten, reference compound] has what Number of strains at MIC value 1 mg/L? 4

Entry CN(C)c1cc(NC(=O)CNC(C)(C)C)c(O)c2c1C[C@H]1C[C@H]3[C@H](N(C)C)C(O)=C(C(N)=O)C(=O)[C@@]3(O)C(O)=C1C2=O has what Number of strains at MIC value 1 mg/L? 3
